- Tested on: NCI-H322M lung
- procedure-summary: NCI-60 one-dose screen, 48 h
- conditions-used: 10 µM unless noted
- Experimental: Growth inhibition of the NCI-H322M human Non-Small Cell Lung tumor cell line is measured as a screen for anti-cancer activity. Cells are grown in 96 well plates and exposed to the test compound for 48 hours. Compounds are tested at a single concentration, which is 10^-5 M for most compounds. The reported endpoint is percent growth (GI% or GIPRCNT), where numbers from 0 - 100% represent growth inhibition, and numbers from -100% - 0 represent cell death. […]
This is part of a sample that, as a whole, favours compounds with a hit. Of some 83,000 tested, about 20% had one in any assay. Activity calls are given as the source filed them. How the source made its calls: active means growth percent below 10; inactive means the rest.
Respond only with the outcome that fits, drawn from 1 (active), -1 (inactive)

query: Outcome? CC[C@H](C)[C@H](NC(=O)[C@H]1CCCCN1C)C(=O)N(C)[C@H](C[C@@H](OC(C)=O)c1nc(C(=O)NC23C4C5C2C2C3C4C52C(=O)OC)cs1)C(C)C (stereo partly specified)
result: -1

query: Subsequent entry: `CC1=C([Te]c2ccccc2)C(=O)c2ccccc2C1=O`
result: 1

query: Subsequent entry: `CCCCS(=O)(=O)Cl`
result: -1

query: Subsequent entry: COCC1OC2OC3C(COC)OC(OC4C(COC)OC(OC5C(COC)OC(OC6C(COC)OC(OC7C(COC)OC(OC8C(COC)OC(OC1C(O)C2O)C(O)C8O)C(O)C7O)C(O)C6O)C(O)C5O)C(O)C4O)C(O)C3O (stereo unspecified) (tested in a mixture with another compound)
result: -1

query: Subsequent entry: O=C(Cc1ccccc1)NC(O)C(Cl)(Cl)Cl (stereo unspecified)
result: -1

query: Subsequent entry: `C[C@]12CC[C@H]3[C@@H](C[C@@H]4SC(Nc5cccc(F)c5)=N[C@@]45CC(=O)CC[C@]35C)[C@@H]1CCC2=O`
result: -1
